# Subject Of Test: T1, human glucose-dependent insulinotropic polypeptide receptor (GIPR), expressed on CHO-K1 cells (human, UniProt P48546 22-466)
# T1 sequence (looked up): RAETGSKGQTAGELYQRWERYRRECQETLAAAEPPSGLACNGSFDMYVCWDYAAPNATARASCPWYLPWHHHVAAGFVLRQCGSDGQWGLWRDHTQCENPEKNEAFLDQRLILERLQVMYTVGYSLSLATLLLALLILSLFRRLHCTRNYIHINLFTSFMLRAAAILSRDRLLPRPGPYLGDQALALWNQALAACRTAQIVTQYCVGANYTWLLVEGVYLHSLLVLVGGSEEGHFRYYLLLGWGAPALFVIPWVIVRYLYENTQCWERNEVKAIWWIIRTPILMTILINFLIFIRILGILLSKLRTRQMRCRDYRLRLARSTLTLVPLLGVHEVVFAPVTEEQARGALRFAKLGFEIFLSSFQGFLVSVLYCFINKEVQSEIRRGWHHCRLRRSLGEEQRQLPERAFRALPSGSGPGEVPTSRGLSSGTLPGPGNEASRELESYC
# Assay Name: cell-based or functional assay
Numbered stars: 1 amine (or outer) side, 2 acyl side, 3 side chain; on linkers, the order of the positions; unused ones are H or OH. Square brackets hold non-standard residues; d marks the D form. Side chains are listed from the residue outwards. Ends that are not written are not given here. C18 = C18 fatty acid (C16-C22 fatty acids conjugated via γGlu/8-amino-3,6-dioxaoctanoic acid spacers); γGlu = O=C(O)[C@H](CCC(=O)[*:2])N[*:1]; AEEA = NCCOCCOCC(=O)O; Aib = CC(C)(N)C(=O)O; MAL = maleimide
Parameter Measured: EC50 (nM), cAMP assay
Unit nM implied. Number only.

Task item: // EC50 (nM), cAMP assay lookup, key: Y[Aib]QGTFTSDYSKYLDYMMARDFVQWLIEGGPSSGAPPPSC-NH2 (not fully specified (residue 40)) [Peptide No. 5-1A]
Reply: 53.9

Task item: // EC50 (nM), cAMP assay lookup, key: Y[Aib]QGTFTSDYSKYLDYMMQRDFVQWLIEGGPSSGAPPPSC-NH2 (not fully specified (residue 40)) [Peptide No. 5-2A]
Reply: 24.7

Task item: // EC50 (nM), cAMP assay lookup, key: H[Aib]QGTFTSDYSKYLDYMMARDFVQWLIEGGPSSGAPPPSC([MAL-AEEA-AEEA-γGlu-C18])-NH2 [Peptide No. 5A (peptide 5, A type: lipid at Cys40)]
Reply: 157

Task item: // EC50 (nM), cAMP assay lookup, key: H[Aib]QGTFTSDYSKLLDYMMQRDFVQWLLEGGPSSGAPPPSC([MAL-AEEA-AEEA-γGlu-C18])-NH2 [Peptide No. 5-5A]
Reply: 5.17
